Target: T1, recombinant human MUC1-SEA (Homo sapiens, UniProt P15941)
T1 construct: on recombinant human MUC1-SEA on SPR; purchased Acrobiosystems MU1-H52H9
T1 sequence (P15941 1039-1148 limits assumed): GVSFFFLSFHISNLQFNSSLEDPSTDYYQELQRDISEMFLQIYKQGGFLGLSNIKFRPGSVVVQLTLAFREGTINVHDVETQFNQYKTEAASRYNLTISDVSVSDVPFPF
Experiment: Binding strength by Surface Plasmon Resonance (SPR)
Conditions: Table 2

MOLECULE: HM4 LM3: variant of SP66; VH HM4 SEQ ID NO: 10, VL LM3 SEQ ID NO: 14 (antibody, V domains shown) VH: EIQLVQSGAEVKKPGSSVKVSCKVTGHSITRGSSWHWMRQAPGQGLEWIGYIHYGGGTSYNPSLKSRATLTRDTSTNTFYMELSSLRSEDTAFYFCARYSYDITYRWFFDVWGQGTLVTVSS VL: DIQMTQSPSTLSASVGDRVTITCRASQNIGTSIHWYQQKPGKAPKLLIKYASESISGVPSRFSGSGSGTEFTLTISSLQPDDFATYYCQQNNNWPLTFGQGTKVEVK
kd (s⁻¹): 0.000238
//
MOLECULE: HM5 LM2: variant of SP66; VH HM5 SEQ ID NO: 11, VL LM2 SEQ ID NO: 13 (antibody, V domains shown) VH: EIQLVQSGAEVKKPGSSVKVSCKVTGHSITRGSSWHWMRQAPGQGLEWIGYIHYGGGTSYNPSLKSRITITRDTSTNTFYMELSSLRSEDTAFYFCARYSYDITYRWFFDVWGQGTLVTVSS VL: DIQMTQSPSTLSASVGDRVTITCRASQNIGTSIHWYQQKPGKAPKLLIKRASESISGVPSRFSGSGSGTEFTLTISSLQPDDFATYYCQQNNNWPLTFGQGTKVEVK
kd (s⁻¹): 0.000213
//
MOLECULE: HM3 LM2: variant of SP66; VH HM3 SEQ ID NO: 9, VL LM2 SEQ ID NO: 13 (antibody, V domains shown) VH: EIQLVQSGAEVKKPGSSVKVSCKVTGHSITRGSSWHWMRQAPGQGLEWIGYIHYGGGTSYNPSLKSRATLTRDTSTNTAYMELSSLRSEDTAFYFCARYSYDITYRWFFDVWGQGTLVTVSS VL: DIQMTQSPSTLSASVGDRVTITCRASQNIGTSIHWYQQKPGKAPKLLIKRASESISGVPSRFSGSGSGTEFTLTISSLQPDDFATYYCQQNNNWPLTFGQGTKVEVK
kd (s⁻¹): 0.000492
//
MOLECULE: HM2 LM3: variant of SP66; VH HM2 SEQ ID NO: 8, VL LM3 SEQ ID NO: 14 (antibody, V domains shown) VH: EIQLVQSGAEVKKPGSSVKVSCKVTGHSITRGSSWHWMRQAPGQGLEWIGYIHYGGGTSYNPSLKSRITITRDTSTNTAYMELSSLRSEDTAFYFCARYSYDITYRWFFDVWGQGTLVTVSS VL: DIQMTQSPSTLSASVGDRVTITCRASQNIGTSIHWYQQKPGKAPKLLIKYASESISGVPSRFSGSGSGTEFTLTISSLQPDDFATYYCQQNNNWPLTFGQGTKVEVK
kd (s⁻¹): 0.000188
//
MOLECULE: HM2 LM2: variant of SP66; VH HM2 SEQ ID NO: 8, VL LM2 SEQ ID NO: 13 (antibody, V domains shown) VH: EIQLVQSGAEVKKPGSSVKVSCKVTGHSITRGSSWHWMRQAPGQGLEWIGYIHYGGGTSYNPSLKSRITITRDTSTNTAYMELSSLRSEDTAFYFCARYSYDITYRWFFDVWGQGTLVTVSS VL: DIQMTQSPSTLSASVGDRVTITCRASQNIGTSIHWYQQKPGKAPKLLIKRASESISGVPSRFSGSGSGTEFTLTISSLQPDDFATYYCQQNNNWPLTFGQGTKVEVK
kd (s⁻¹): 0.000255

Numbers sourced from patent US20250041437A1.
